Attribution: patent US20230330254A1

- targetDesc: T1, full-length cynomolgus GLP1R on HEK293/CRE-Luc/mfGLP1R cells (cynomolgus, UniProt F8V479 24-463)
- T1 construct: whole, on cells
- assayDetails: flow cytometry, mfGLP1R cells
pEC50: −log10 of the molar value.
Quick list: pEC50 per entry.
outcomeMeasure: pEC50

{"columns": ["binder", "resultNumber"],
 "data": [
  ["REGN8070 (antibody, human IgG4 S228P, kappa, V domains shown, IgG4; Q-tag on light chain N-terminus; also called mAb 16; REGN8070 unconjugated Ab) VH: QVQLVESGGGVGQPGRSLRLSCAASGFTFSRNAMHWVRQAPGKGLEWVAVISYDGSNKHYADSVKGRFTISRDNSKNTLYLEMNSLRVEDTAVYYCAKGGIPFDYWGQGTLVTVSS VL: DIVMTQSPLSSPVTLGQPASISCRSSQSLVHFDGNTYLSWLHQRPGQPPRLLIYKISNRFSGVPDRFSGSGAGTDFTLKISRVEPEDVGVYYCMHATQFPYTFGQGTKLEIKR", 8.69],
  ["H2aM30341N (antibody, V domains shown, parent of H4H30341N (REGN9278 without Q-tag); also called parent of REGN9278) VH: QVQLQQWGAGLLKPSETLSLTCAVYGGSFSGYYWSWIRQPPGKGLEWIGEINHAGSTNYNPSLKSRITISVDTSKNQFSLKLSSVTAADTAVYYCARGWYYGSGSYHRNWFDPWGQGTLVTVSS VL: EIVLTQSPGTLSLSPGERATLSCRASQSVYYSYLAWYQQKPGQAPRLLIYGASNRATGIPDRFSGSGSGTDFTLTISRLEPEDFAVYYCQQYGNSPWTFGQGTKVEIK", 8.68],
  ["REGN8072-M3190 (antibody, human IgG4 S228P, kappa, V domains shown, linker-payload M3190 (LP11) on Gln 3 of the N-terminal Q-tag LLQGSG, antibody-tethered drug conjugate; also called REGN8072 ATDC; anti-GLP1R mAb4-LP11) VH: QVQLVESGGGVVQPARSLRLSCAASGFAFSRSAMHWVRQAPGKGLEWVAVISYDGSNKYYTDSVKGRFTISRDNSKNTLYLQMNTLRAEDTALYYCAKMYTTMDSFDYWGQGTLVTVSS VL: DIQLTQSPSFLSASVGDRVTITCWASQGISSYLAWYQQKPGKAPKLLIYAASTLQSGVPSRFSGSGSGTEFTLTISSLQPEDFALYYCQQLNSYPRTFGQGTKVEIKR", 8.47]
]}
